The origin of these recorded values is PubChem BioAssay AID1963982.

System: 313798-341-R-J2-PDC spheroids, viability
Experiment: Anticancer human tumor 313798-341-R-J2-PDC patient-derived cervical squamous cell carcinoma cell line growth inhibition [PI3K]
Conditions: second compound 0.316 µM; first compound 0.316 µM; stronger effect = lower value; spheroids with HUVEC and MSC
measurement.label: viability, T/C (%)

molecule	assay.result
CC1(C)CCC(CN2CCN(c3ccc(C(=O)NS(=O)(=O)c4ccc(NCC5CCOCC5)c([N+](=O)[O-])c4)c(Oc4cnc5[nH]ccc5c4)c3)CC2)=C(c2ccc(Cl)cc2)C1 + Cc1nc(NC(=O)N2CCCC2C(N)=O)sc1-c1ccnc(C(C)(C)C(F)(F)F)c1	112
C=CC(=O)N1CCN(c2nc(=O)n(-c3c(C)ccnc3C(C)C)c3nc(-c4c(O)cccc4F)c(F)cc23)C(C)C1 (stereo not given) + CC(Nc1ccc2c(c1)OCCn1cc(N3C(=O)OCC3C(F)F)nc1-2)C(N)=O	86.8
CNC(=O)c1ccc(N2C(=S)N(c3ccc(C#N)c(C(F)(F)F)c3)C(=O)C2(C)C)cc1F + CC(Nc1ccc2c(c1)OCCn1cc(N3C(=O)OCC3C(F)F)nc1-2)C(N)=O	79.7
CCN1CCN(Cc2ccc(Nc3ncc(F)c(-c4cc(F)c5nc(C)n(C(C)C)c5c4)n3)nc2)CC1 + CC(Nc1ccc2c(c1)OCCn1cc(N3C(=O)OCC3C(F)F)nc1-2)C(N)=O	77.7
CC1(C)CCC(Nc2ncc(C(F)(F)F)c(-c3c[nH]c4c(P(C)(C)=O)c(C#N)ccc34)n2)CN1 (stereo not given) + CC(Nc1ccc2c(c1)OCCn1cc(N3C(=O)OCC3C(F)F)nc1-2)C(N)=O	24.9

---

Tested on: 313798-341-R-J2-PDC spheroids, viability
Test: Anticancer human tumor 313798-341-R-J2-PDC cell line growth inhibition [PI3K]; active = viability on the fitted dose curve at most 10% of control; inactive = the rest;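 further: spheroids exposed to compounds for seven days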
Settings: second compound 0.316 µM; first compound 0.949 µM; spheroids with HUVEC and MSC
Outcome codes: 1 (yes) (active), 0 (no) (inactive)

molecule	label
Cn1cnc2c(F)c(Nc3ccc(Br)cc3Cl)c(C(=O)NOCCO)cc21 + COc1c(OCCCN2CCOCC2)ccc2c3n(c(=NC(=O)c4cnc(N)nc4)nc12)CCN3	1 (yes)
Cn1cnc2c(F)c(Nc3ccc(Br)cc3Cl)c(C(=O)NOCCO)cc21 + CC(Nc1ccc2c(c1)OCCn1cc(N3C(=O)OCC3C(F)F)nc1-2)C(N)=O	0 (no)
Cn1cnc2c(F)c(Nc3ccc(Br)cc3Cl)c(C(=O)NOCCO)cc21 + CC(Nc1ncnc2nc[nH]c12)c1cc2cccc(Cl)c2c(=O)n1-c1ccccc1	0 (no)
Cn1cnc2c(F)c(Nc3ccc(Br)cc3Cl)c(C(=O)NOCCO)cc21 + Cc1nc(NC(=O)N2CCCC2C(N)=O)sc1-c1ccnc(C(C)(C)C(F)(F)F)c1	0 (no)

---

Tested on: 313798-341-R-J2-PDC spheroids, viability
Assay: Anticancer human tumor 313798-341-R-J2-PDC cell line growth inhibition [PI3K];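 further: spheroids exposed to compounds for seven days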
Details: curve of first compound; second compound 1 µM; spheroids with HUVEC and MSC
measurement.label: IC50

compound	measured.on	measurement.label	assay.result
CCN1CCN(Cc2ccc(Nc3ncc(F)c(-c4cc(F)c5nc(C)n(C(C)C)c5c4)n3)nc2)CC1 + Cc1nc(NC(=O)N2CCCC2C(N)=O)sc1-c1ccnc(C(C)(C)C(F)(F)F)c1	313798-341-R-J2-PDC spheroids, viability	IC50	> 1 µM
Cn1ncc(Cl)c1-c1cc(C(=O)NC(CN)Cc2cccc(F)c2)sc1Cl (stereo unspecified) + CC(Nc1ncnc2nc[nH]c12)c1cc2cccc(Cl)c2c(=O)n1-c1ccccc1	313798-341-R-J2-PDC spheroids, viability	IC50	1.08 µM
Cn1nccc1Nc1nccc(-c2ccn(C(CO)c3ccc(Cl)c(F)c3)c(=O)c2)n1 (stereo unspecified) + CC(Nc1ncnc2nc[nH]c12)c1cc2cccc(Cl)c2c(=O)n1-c1ccccc1	313798-341-R-J2-PDC spheroids, viability	IC50	> 10 µM
CC1(C)CCC(Nc2ncc(C(F)(F)F)c(-c3c[nH]c4c(P(C)(C)=O)c(C#N)ccc34)n2)CN1 (stereo unspecified) + CC(Nc1ccc2c(c1)OCCn1cc(N3C(=O)OCC3C(F)F)nc1-2)C(N)=O	313798-341-R-J2-PDC spheroids, viability	IC50	< 0.0316 µM
CC(Cn1ccc(-c2ccc(C#N)c(Cl)c2)n1)NC(=O)c1cc(C(C)O)[nH]n1 (stereo unspecified) + CC(Nc1ncnc2nc[nH]c12)c1cc2cccc(Cl)c2c(=O)n1-c1ccccc1	313798-341-R-J2-PDC spheroids, viability	IC50	> 10 µM
CC1(C)CCC(Nc2ncc(C(F)(F)F)c(-c3c[nH]c4c(P(C)(C)=O)c(C#N)ccc34)n2)CN1 (stereo unspecified) + COc1c(OCCCN2CCOCC2)ccc2c3n(c(=NC(=O)c4cnc(N)nc4)nc12)CCN3	313798-341-R-J2-PDC spheroids, viability	IC50	< 0.0316 µM
CC1(C)CCC(CN2CCN(c3ccc(C(=O)NS(=O)(=O)c4ccc(NCC5CCOCC5)c([N+](=O)[O-])c4)c(Oc4cnc5[nH]ccc5c4)c3)CC2)=C(c2ccc(Cl)cc2)C1 + Cc1nc(NC(=O)N2CCCC2C(N)=O)sc1-c1ccnc(C(C)(C)C(F)(F)F)c1	313798-341-R-J2-PDC spheroids, viability	IC50	4.22 µM
CC1(C)CCC(Nc2ncc(C(F)(F)F)c(-c3c[nH]c4c(P(C)(C)=O)c(C#N)ccc34)n2)CN1 (stereo unspecified) + Cc1nc(NC(=O)N2CCCC2C(N)=O)sc1-c1ccnc(C(C)(C)C(F)(F)F)c1	313798-341-R-J2-PDC spheroids, viability	IC50	< 0.0316 µM
CC(C)n1nc(-c2ccc3oc(N)nc3c2)c2c(N)ncnc21 + Cc1nc(NC(=O)N2CCCC2C(N)=O)sc1-c1ccnc(C(C)(C)C(F)(F)F)c1	313798-341-R-J2-PDC spheroids, viability	IC50	0.0255 µM
Cn1nccc1Nc1nccc(-c2ccn(C(CO)c3ccc(Cl)c(F)c3)c(=O)c2)n1 (stereo unspecified) + COc1c(OCCCN2CCOCC2)ccc2c3n(c(=NC(=O)c4cnc(N)nc4)nc12)CCN3	313798-341-R-J2-PDC spheroids, viability	IC50	< 0.0316 µM
CC(C)NCC(C(=O)N1CCN(c2ncnc3c2C(C)CC3O)CC1)c1ccc(Cl)cc1 (stereo unspecified) + Cc1nc(NC(=O)N2CCCC2C(N)=O)sc1-c1ccnc(C(C)(C)C(F)(F)F)c1	313798-341-R-J2-PDC spheroids, viability	IC50	1.42 µM
